# TESTED_TARGET: rat PAM (Rattus norvegicus)
# ASSAY_REMARKS: Bifunctional rat PAM inhibition
# Type: biochemical
# CONDITION_LABEL: Ki,s, rat PAM, absence of DMSO, competitive inhibition assumed
Where a SMILES comes first, the peptide text is derived from it. The star is where a group is joined. NHOH = ON*
READOUT: Ki (µM)

# count of solved cases: 3
{"MOLECULE": "CC(C)C[C@H](NC(=O)[C@@H]1CCCN1)C(=O)NCC(=O)NO [compound 74, Pro-Leu-Gly hydroxamic acid] (H-Pro-Leu-Gly-{NHOH})", "Ki / µM": 1000}
{"MOLECULE": "CC(SC(=S)c1ccccc1)C(=O)O (racemic) [compound 66, S-(Thiobenzoyl)-(R,S)-thiolactic acid]", "Ki / µM": 58}
{"MOLECULE": "O=C(O)CSC(=S)Cc1ccccc1", "Ki / µM": 7.9}

(A) CCCCCCCCCCCC(=S)SCC(=O)O
(B) CC(NC(=S)c1ccccc1)C(=O)O (stereo not shown)
(C) O=C(O)COC(=O)Nc1ccccc1
(D) O=C(N[C@H](CO)C(=O)O)c1ccccc1
Endpoint returns the given molecules ordered by ascending Ki. Please respond by ranking the labels in the order requested.
A, B, C, D

---

# TESTED_TARGET: rat PAM (Rattus norvegicus, UniProt P14925)
# Sequence (P14925 36-715 isoform P14925-2 limits assumed): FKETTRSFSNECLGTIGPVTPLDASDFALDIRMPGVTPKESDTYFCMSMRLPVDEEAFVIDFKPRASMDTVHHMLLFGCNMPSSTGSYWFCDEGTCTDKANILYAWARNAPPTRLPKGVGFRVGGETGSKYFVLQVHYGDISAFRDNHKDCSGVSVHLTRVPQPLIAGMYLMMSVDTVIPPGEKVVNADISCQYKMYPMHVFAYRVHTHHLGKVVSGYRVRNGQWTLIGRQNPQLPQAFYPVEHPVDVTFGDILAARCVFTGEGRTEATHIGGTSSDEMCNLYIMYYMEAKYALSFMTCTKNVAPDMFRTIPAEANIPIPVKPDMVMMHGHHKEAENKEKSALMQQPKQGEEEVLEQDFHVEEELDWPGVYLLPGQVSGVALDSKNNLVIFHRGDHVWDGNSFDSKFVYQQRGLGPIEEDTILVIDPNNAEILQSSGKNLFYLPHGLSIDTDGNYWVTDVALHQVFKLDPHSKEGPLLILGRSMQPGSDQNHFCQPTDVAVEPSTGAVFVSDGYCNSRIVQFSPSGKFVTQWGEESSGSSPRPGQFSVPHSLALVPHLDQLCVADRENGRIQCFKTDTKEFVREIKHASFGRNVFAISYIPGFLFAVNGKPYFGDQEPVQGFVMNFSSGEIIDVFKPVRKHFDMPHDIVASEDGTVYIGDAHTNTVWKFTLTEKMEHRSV
# ASSAY_REMARKS: Bifunctional rat PAM inhibition
# Assay type: biochemical
# CONDITION_LABEL: Ki,s, rat PAM, absence of DMSO, competitive inhibition assumed
pKi: −log10 of the molar value.
READOUT: pKi

{"MOLECULE": "NCC(=O)NNC(=O)OCc1ccccc1 [compound 78, (CBZ-hydrazido)glycine]", "pKi": 2.10}
{"MOLECULE": "O=C(NC(CSC(=O)c1ccccc1)C(=O)O)c1ccccc1 (stereo in doubt)", "pKi": 4.16}
{"MOLECULE": "O=C(O)CSC(=S)CCc1ccccc1", "pKi": 5.03}
{"MOLECULE": "O=C(O)CSc1ccccc1", "pKi": 3.42}
{"MOLECULE": "O=C(NO)c1ccccc1O [compound 71, Salicylhydroxamic acid]", "pKi": 3.52}
{"MOLECULE": "O=C(O)CSC(=S)c1ccccc1", "pKi": 4.41}

(a) Cc1ccc(C(=S)SCC(=O)O)cc1
(b) O=C(NCC[C@H](O)C(=O)O)OCc1ccccc1 [compound 75, (S)-N-CBZ-4-amino-2-hydroxybutyric acid]
Hi, I'm comparing two records. Which one has the lower pKi, a or b ? Refer to your chosen entry by its label in the reply.
b
(b: 2.85, a: 5.46)

---

# TESTED_TARGET: UniProt:P14925
# ASSAY_REMARKS: Bifunctional rat PAM inhibition
# Type: biochemical
# CONDITION_LABEL: Ki,s, rat PAM, […] DMSO
READOUT: Ki (µM)

{"TEST_SMILES": "O=C(O)CSC(=S)CCc1ccccc1", "TESTED_TARGET": "UniProt:P14925", "Ki [µM]": 30}

(1) O=C(O)CNC(=S)Nc1ccccc1
(2) O=C(O)CSC(=S)c1ccccc1
Hi there! Just curious which has the higher Ki between 1 and 2 . When you have decided, please share the label of that item.
1

---

# TESTED_TARGET: B. germanica PHM
# ASSAY_REMARKS: B. germanica PHM inhibition
# Assay type: biochemical, Blatella germanica
# CONDITION_LABEL: read-out: Ki,s vs. B. germanica PHM; N-dansyl-Tyr-Val-Gly amidation
READOUT: Ki (µM)

Worked cases, Ki given:
{"TEST_SMILES": "O=C(O)CSC(=S)c1ccccc1", "TESTED_TARGET": "B. germanica PHM", "Ki (µM)": 92}
{"TEST_SMILES": "O=C(O)CSC(=S)Cc1ccccc1", "TESTED_TARGET": "B. germanica PHM", "Ki (µM)": 3.6}
{"TEST_SMILES": "O=C(O)CCSC(=S)Nc1ccccc1", "TESTED_TARGET": "B. germanica PHM", "Ki (µM)": 5.5}

(1) O=C(O)CSC(=S)Nc1ccccc1
(2) O=C(O)CSC(=S)CCc1ccccc1
(3) O=C(O)CSc1ccccc1
(4) Cc1ccc(C(=S)SCC(=O)O)cc1
Hey, quick one: sort these by Ki, low to high? Your answer should be the labels, listed in the requested order.
2, 1, 4, 3

---

# TESTED_TARGET: UniProtKB P14925
# ASSAY_REMARKS: Bifunctional rat PAM inhibition
# Type: biochemical
# CONDITION_LABEL: Ki,s, rat PAM, absence of DMSO, competitive inhibition assumed
READOUT: Ki (µM)

{"MOLECULE": "CC(C#N)(CCC(=O)O)SC(=S)c1ccccc1 (stereo not drawn) [compound 58]", "Ki [µM]": 5.7}

(I) O=C(O)CONC(=O)c1ccccc1 [compound 73, O-Benzamidoglycolic acid]
(II) CCOC(=O)CSC(=S)c1ccc(C)cc1 [compound 70]
(III) O=C(O)CSC(=S)Nc1ccccc1 [compound 61, S-(Phenylthiocarbamoyl)thioglycolic acid]
(IV) O=C(O)CNCc1ccccc1 [compound 79, N-Benzylglycine]
(V) O=C(O)CCSC(=S)Nc1ccccc1 [compound 56]
Hey, can you sort those molecules up there by Ki, smallest first? Answer by listing the labels in the order asked for.
V, III, II, I, IV
(V: 2.6 µM, III: 8.6 µM, II: 110 µM, I: 1000 µM, IV: 18000 µM)
